# assay-system: CDK9/cyclin T1 (Homo sapiens, UniProt P50750)
# Sequence (P50750 whole entry, species assumed): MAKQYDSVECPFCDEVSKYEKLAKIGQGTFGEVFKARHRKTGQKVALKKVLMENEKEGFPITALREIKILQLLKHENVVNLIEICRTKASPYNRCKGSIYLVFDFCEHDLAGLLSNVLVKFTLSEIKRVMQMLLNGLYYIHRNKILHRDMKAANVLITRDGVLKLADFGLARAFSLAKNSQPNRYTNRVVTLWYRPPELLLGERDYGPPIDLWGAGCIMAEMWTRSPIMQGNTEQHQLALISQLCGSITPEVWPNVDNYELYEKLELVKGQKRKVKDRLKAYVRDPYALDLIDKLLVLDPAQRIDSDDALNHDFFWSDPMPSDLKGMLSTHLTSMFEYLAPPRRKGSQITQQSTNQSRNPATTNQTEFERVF
# Sequence (O60563 whole entry partner, species assumed): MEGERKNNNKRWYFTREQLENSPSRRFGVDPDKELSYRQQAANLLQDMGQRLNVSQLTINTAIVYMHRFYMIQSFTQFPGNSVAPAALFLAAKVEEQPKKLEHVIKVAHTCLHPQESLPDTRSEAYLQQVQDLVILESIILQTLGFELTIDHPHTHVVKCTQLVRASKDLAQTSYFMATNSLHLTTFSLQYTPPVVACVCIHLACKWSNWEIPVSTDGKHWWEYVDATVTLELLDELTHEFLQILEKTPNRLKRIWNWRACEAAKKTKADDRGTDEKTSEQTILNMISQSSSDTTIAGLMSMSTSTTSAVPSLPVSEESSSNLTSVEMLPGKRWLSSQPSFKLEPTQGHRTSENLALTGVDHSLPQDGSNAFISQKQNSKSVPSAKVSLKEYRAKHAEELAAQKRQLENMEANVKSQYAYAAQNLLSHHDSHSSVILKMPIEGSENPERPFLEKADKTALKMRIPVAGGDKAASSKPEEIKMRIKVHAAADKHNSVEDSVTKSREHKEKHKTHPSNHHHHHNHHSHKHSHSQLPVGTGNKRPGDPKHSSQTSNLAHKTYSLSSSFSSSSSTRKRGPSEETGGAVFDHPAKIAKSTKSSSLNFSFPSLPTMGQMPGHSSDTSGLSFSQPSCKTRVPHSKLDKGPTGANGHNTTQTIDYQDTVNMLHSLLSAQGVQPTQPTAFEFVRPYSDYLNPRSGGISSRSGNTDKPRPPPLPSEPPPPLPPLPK
# method-summary: Kinase assay CDK9/cyclin T1
# run-parameters: Ki calculated (Cheng-Prusoff) from experimentally determined IC50 and Km,ATP; read-out: Kinase Inhibition Ki CDK9 - cyclin T1
endpoint-name: Ki

[[record]]
smiles_structure = "Cc1ccc(Nc2nccc(-c3sc(=O)n(C)c3C)n2)cc1S(=O)(=O)N1CCOCC1"
endpoint_name = "Ki"
recorded_value = "27 nM"

[[record]]
smiles_structure = "Cc1c(-c2ccnc(Nc3ccc(N(C)C)c([N+](=O)[O-])c3)n2)sc(=O)n1C"
endpoint_name = "Ki"
recorded_value = "7.2 nM"

[[record]]
smiles_structure = "CCn1c(C)c(-c2ccnc(Nc3ccc(Cl)c(C)c3)n2)sc1=O"
endpoint_name = "Ki"
recorded_value = "190 nM"

[[record]]
smiles_structure = "Cc1c(-c2ccnc(Nc3ccc(Cl)nc3)n2)sc(=O)n1C"
endpoint_name = "Ki"
recorded_value = "6.5 nM"

[[record]]
smiles_structure = "Cc1ccc(Nc2nccc(-c3sc(=O)n(C)c3C)n2)cc1[N+](=O)[O-]"
endpoint_name = "Ki"
recorded_value = "0.4 nM"

[[record]]
smiles_structure = "CCn1c(C)c(-c2ccnc(Nc3cccc(OC)c3)n2)sc1=O"
endpoint_name = "Ki"
recorded_value = "80 nM"

[[record]]
smiles_structure = "Cc1c(-c2ccnc(Nc3ccc(N4CCN(Cc5ccccc5)CC4)cc3)n2)sc(=O)n1C"
endpoint_name = "Ki"
recorded_value = "21 nM"

[[record]]
smiles_structure = "Cc1c(-c2ccnc(Nc3ccc(S(=O)(=O)NCCO)cc3)n2)sc(=O)n1C"
endpoint_name = "Ki"
recorded_value = "11 nM"

[[record]]
smiles_structure = "Cc1c(-c2ccnc(Nc3cc(Br)cc(C(F)(F)F)c3)n2)sc(=O)n1C"
endpoint_name = "Ki"
recorded_value = "140 nM"


###

# assay-system: CDK2/cyclin E (Homo sapiens, UniProt P24941)
# method-summary: Kinase assay CDK2/cyclin E
# run-parameters: Ki calculated (Cheng-Prusoff) from experimentally determined IC50 and Km,ATP; read-out: Kinase Inhibition Ki CDK2 - cyclin E
pKi: −log10 of the molar value.
Reported pKi values are given for each entry in this list.
endpoint-name: pKi

[[record]]
compound = "Cc1c(-c2ccnc(Nc3ccc(N(C)C)c([N+](=O)[O-])c3)n2)sc(=O)n1C [Compound 22]"
recorded_value = 7.28

[[record]]
compound = "CCn1c(C)c(-c2ccnc(Nc3ccc([N+](=O)[O-])cc3)n2)sc1=O [Compound 52]"
recorded_value = 7.11

[[record]]
compound = "Cc1ccc(Nc2nccc(-c3sc(=O)n(C)c3C)n2)cc1C(F)(F)F [Compound 21]"
recorded_value = 6.72

[[record]]
compound = "CCn1c(C)c(-c2ccnc(Nc3ccc(N(C)C)c([N+](=O)[O-])c3)n2)sc1=O [Compound 29]"
recorded_value = 7.48

[[record]]
compound = "Cc1c(-c2ccnc(Nc3cccc([N+](=O)[O-])c3)n2)sc(=O)n1CCC(C)C [Compound 30]"
recorded_value = 6.54

[[record]]
compound = "CCn1c(C)c(-c2ccnc(Nc3ccc(N(C)C)cc3)n2)sc1=O [Compound 26]"
recorded_value = 6.54

[[record]]
compound = "CCn1c(C)c(-c2ccnc(Nc3ccc(Cl)c(C)c3)n2)sc1=O [Compound 51]"
recorded_value = 6.57

[[record]]
compound = "Cc1c(-c2ccnc(Nc3ccc(N4CCOCC4)cc3)n2)sc(=O)n1C [Compound 9]"
recorded_value = 6.23

[[record]]
compound = "CCn1c(C)c(-c2ccnc(Nc3ccc(F)cc3)n2)sc1=O [Compound 45]"
recorded_value = 7.62

